Molecular target: human TRPV1 receptor (hTRPV1) (Homo sapiens (Human), UniProt Q8NER1)
Sequence (Q8NER1 whole entry): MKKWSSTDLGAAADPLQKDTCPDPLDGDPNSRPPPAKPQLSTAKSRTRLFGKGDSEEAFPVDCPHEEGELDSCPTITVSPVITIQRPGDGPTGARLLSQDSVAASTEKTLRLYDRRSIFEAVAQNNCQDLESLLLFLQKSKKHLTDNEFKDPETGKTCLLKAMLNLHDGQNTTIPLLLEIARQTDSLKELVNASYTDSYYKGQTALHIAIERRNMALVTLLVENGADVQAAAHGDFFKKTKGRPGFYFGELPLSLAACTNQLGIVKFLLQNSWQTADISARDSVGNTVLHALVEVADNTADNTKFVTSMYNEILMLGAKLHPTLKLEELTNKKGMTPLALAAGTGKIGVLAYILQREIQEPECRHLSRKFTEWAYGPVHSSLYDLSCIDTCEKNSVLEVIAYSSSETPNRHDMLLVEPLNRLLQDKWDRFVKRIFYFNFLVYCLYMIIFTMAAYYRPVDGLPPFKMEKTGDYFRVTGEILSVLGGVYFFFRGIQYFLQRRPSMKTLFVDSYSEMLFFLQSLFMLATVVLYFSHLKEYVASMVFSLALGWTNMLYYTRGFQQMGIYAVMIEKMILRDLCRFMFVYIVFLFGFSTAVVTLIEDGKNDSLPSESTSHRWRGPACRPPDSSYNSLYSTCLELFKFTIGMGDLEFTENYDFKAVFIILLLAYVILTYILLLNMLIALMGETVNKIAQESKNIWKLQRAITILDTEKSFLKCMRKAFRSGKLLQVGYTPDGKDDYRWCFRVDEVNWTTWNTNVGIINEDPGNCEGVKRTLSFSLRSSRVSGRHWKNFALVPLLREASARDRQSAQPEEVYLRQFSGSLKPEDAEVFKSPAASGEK
Assay: Capsaicin activation assay (FLIPR intracellular Ca2+)
Type: cell-based
Conditions: Table 1; inhibition of capsaicin-induced intracellular Ca2+ increase, HEK293 cells expressing human TRPV1; read-out: hTRPV1 cap IC50
Procedure: Dulbecco's modified Eagle medium (D-MEM) (with 4.5 mg/mL glucose) and fetal bovine serum were obtained from Hyclone Laboratories, Inc. (Logan, Utah). […] The functional activity of compounds at the TRPV1 receptor was determined by measurement of intracellular Ca^2+ levels ([Ca^2+]i) using the Fluorescence Imaging Plate Reader (FLIPR)^TETRA®. […] Fluorescence readings were made at 1 to 5 second intervals over the course of the experimental run. […]
RECORDED_METRIC: pIC50
As a rule, pIC50 stands for the negative log10 of the concentration, concentration in M.

O=C(Nc1ccc2c(c1)NC(=O)N(CCO)C2)N[C@H]1CC[C@@H](c2ccccc2F)C1; 6.09
Cc1cc2c(NC(=O)N[C@@H]3CC[C@@](C)(c4ccccc4)C3)c(F)ccc2cn1; 7.68
O=C(Nc1ccc2c(c1)NC(=O)C(N1CCCOCC1)C2)N[C@@H]1CC[C@H](c2ccccc2)C1 (some centres unmarked); 6.84
O=C(Nc1cccc2[nH]ncc12)N[C@H]1CC[C@H](c2cccc(F)c2)C1; 7.54
O=C(Nc1cccc2[nH]ncc12)N[C@@H]1CC[C@H](c2cccc(F)c2)C1; 8.10
CN1C(=O)CCc2ccc(NC(=O)N[C@H]3CC[C@@H](c4cccc(F)c4)C3)cc21; 6.09

Lab note: molecule Cn1c(=O)ccc2c(NC(=O)N[C@H]3CC[C@@H](c4ccccc4F)C3)cccc21 tested on human TRPV1 receptor (hTRPV1) (Homo sapiens (Human), UniProt Q8NER1); recorded pIC50 was 8.00

Lab note: molecule O=C(Nc1cccc2c1C[C@H](O)C2)N[C@H]1CC[C@@H](c2cccc(F)c2)C1 tested on human TRPV1 receptor (hTRPV1) (Homo sapiens (Human), UniProt Q8NER1); recorded pIC50 was 6.47

----------
biological target: human TRPV1 receptor (hTRPV1) (Homo sapiens (Human)); assay: Capsaicin activation assay (FLIPR intracellular Ca2+); format: cell-based; settings: Table 1; inhibition of capsaicin-induced intracellular Ca2+ increase, HEK293 cells expressing human TRPV1; read-out: hTRPV1 cap IC50
Each entry below lists one item and its recorded pIC50 value.
As a rule, pIC50 stands for the negative log10 of the concentration, concentration in M.

Example entries begin here.
Cc1coc([C@H]2CC[C@@H](NC(=O)Nc3cccc4[nH]ncc34)C2)n1 (single isomer, unassigned) [Example 123]; 5.95
C[C@H]1Oc2c(NC(=O)N[C@@H]3CC[C@H](c4ccccc4)C3)cccc2NC1=O [Example 3]; 7.26
O=C(Nc1cccc2c1C[C@@H](O)CC2)N[C@@H]1CC[C@H](c2ccccc2)C1 [Compound C, reference compound]; 8.30

Form field pIC50, entry O=C1CCc2ccc(NC(=O)N[C@H]3CC[C@@H](c4ccccc4)C3)cc2N1 [Example 26] : 6.26

Form field pIC50, entry CC(C)(C)c1ccc(C2CCCC(NC(=O)Nc3cccc4[nH]ncc34)C2)cc1 (centres unmarked) [Example 29] : 5.76

Form field pIC50, entry O=C(Nc1cccc2[nH]ccc12)N[C@@H]1CC[C@H](c2ccccc2)C1 [Example 137] : 7.00

Form field pIC50, entry O=C(Nc1cccc2[nH]ncc12)N[C@@H]1C[C@H](c2ccccc2)[C@@H]2C[C@@H]21 [Example 55] : 7.43

Form field pIC50, entry O=C(Nc1cccc2c1C[C@H](O)CC2)N[C@H]1CC[C@H](c2ccccc2)C1 [Compound A, reference compound] : 8.40

Form field pIC50, entry O=C(Nc1cccc2c1C[C@@H](O)C2)N[C@H]1CC[C@@H](c2ccccc2)C1 [Example 23] : 6.86
